// IC50 lookup, one value per entry
target: EGFR L858R/C797S (Homo sapiens, UniProt P00533, C797S/L858R); assay: Biochemical EGFR kinase assay (Lance Ultra TR-FRET), double mutant L858R/C797S; conditions: ATP at Km; read-out: IC50 L858R/C797S, Km ATP
Sequence (P00533 25-1210 C797S/L858R): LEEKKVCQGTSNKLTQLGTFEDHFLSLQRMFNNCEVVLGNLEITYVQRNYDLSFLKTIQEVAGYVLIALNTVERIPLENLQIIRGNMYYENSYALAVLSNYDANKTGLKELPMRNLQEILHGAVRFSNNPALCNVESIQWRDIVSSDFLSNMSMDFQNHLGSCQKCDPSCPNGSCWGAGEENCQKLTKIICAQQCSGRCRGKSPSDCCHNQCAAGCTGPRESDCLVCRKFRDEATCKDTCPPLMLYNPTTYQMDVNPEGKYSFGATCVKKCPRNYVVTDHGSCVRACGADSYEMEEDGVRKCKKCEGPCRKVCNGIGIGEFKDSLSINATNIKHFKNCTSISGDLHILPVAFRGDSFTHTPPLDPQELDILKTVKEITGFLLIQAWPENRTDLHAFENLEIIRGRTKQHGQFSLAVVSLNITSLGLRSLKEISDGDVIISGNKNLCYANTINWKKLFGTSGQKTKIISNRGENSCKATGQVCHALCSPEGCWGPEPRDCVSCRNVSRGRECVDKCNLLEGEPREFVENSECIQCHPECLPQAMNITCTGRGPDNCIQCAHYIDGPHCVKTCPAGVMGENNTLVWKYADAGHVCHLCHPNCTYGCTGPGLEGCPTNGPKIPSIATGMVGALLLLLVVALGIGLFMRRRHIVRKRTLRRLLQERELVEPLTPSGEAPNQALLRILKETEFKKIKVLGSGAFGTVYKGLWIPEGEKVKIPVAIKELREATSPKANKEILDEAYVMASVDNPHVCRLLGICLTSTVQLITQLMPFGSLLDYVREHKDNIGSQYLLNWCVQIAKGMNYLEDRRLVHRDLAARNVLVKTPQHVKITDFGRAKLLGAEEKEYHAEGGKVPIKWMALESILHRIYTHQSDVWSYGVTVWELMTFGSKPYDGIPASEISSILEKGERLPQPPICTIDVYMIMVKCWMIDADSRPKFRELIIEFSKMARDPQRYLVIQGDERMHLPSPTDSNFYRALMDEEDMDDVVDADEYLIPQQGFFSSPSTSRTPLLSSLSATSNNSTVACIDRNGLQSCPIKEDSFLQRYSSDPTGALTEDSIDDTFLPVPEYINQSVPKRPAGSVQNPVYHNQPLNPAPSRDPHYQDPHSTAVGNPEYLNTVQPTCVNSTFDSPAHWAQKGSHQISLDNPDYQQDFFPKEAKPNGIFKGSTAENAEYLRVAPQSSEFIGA

smiles-input	endpoint-unit	IC50
CC(C)(O)c1ccc(-c2cnc(Nc3ccnc(-c4cnn(S(=O)(=O)C5CC5)c4)n3)cc2N[C@H]2CC[C@@H](F)CC2)nc1	nM	1.6
CN(C)C(=O)[C@H]1CC[C@@H](Nc2cc(Nc3ccnc(-c4cnn(S(=O)(=O)C5CC5)c4)n3)ncc2-c2ccc(C(C)(C)O)cn2)CC1	nM	1.3
C[C@]1(O)CC[C@@H](Nc2cc(Nc3ccnc(-c4cnn(S(=O)(=O)C5CC5)c4)n3)ncc2-c2cccc(F)n2)CC1	nM	0.6

Data origin: patent US12258328B2
